# Measurement Target: T1, CXCL1/Gro-alpha (UniProt P09341 35-107)
# T1 construct: also called Gro-α; 125I-CXCL1/Gro-alpha
# T1 sequence: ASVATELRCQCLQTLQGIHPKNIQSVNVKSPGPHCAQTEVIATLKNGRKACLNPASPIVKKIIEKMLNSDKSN
# Assay Text: SPR (Biacore 3000), Evasin-3-6His immobilized on CM4 chip, Kd=kd/ka

Binder	Unit Abbreviation	Kd
recombinant Evasin-3-6His purified from HEK293 cells (other, glycosylation on the S and T residues of the N-terminal sequence LVSTIESRTS (80% of the mature protein); heterogeneous post-translational modification, smear of 20-30 Kd, also called Evasin-3-HIS; mature Evasin-3-HIS) LVSTIESRTSGDGADNFDVVSCNKNCTSGQNECPEGCFCGLLGQNKKGHCYKIIGNLSGEPPVVRRHHHHHH	nM	0.45
